PROTOCOL DETAILS: binders of probe aHhip on microarray, primary screen, stem cell growth factor project, biochemical, small-molecule microarray, fluorescence 635/667 (AID 1087);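 further: score merges spot fluorescence at 667nm with spot signal to noise ratio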
REPORTED CONDITIONS: higher = more signal
Respond with rule met for composite z-score values of -0.2 and above, rule not met for values below.

Some solved cases for reference:
>  <COMPOUND>
C=CC[C@@H]1C=CC(ON=C(C)C)[C@@H](CO)O1 (some centres not stated)

>  <ANSWER LABEL>
rule met

$$$$
>  <COMPOUND>
COC(=O)[C@@H]1CC[C@H](C)[C@@H](c2ccc(C)cc2)N1C(=O)c1ccc(C=NOC[C@H]2O[C@H](c3ccccc3)C=C[C@@H]2Oc2ccc(OC)cc2)cc1

>  <ANSWER LABEL>
rule met

$$$$
>  <COMPOUND>
CCOC(=O)CCN1C(=O)[C@H]2[C@H]3[C@H](O)[C@H](O)CC(=NNC(=O)OCC)[C@H]3CC[C@H]2C1=O

>  <ANSWER LABEL>
rule met

$$$$

composite z-score >= -0.2 for C[C@H]1CC[C@H]2C(=O)O[C@H](CO)CN2[C@@H]1c1ccc(Br)cc1 ?
rule met

composite z-score >= -0.2 for COC(=O)[C@H](C)NC(=O)CCC1CC(OC(=O)NCc2ccc3c(c2)OCO3)CC2(CCCC(COC(=O)NCCC(C)C)O2)O1 (some centres not stated) ?
rule not met

composite z-score >= -0.2 for Cc1ccc(S(=O)(=O)N[C@@H]2COC(=O)CC=C[C@@H](C)[C@H](NS(=O)(=O)c3ccc(C)cc3)COC(=O)[C@H](C)NC(=O)CC=C[C@H]2C)cc1 ?
rule not met

composite z-score >= -0.2 for COC(=O)CC=C[C@@H](C)[C@@H](C=NOC[C@@H](C)[C@H](OCc1ccccc1)C(C)C)NS(=O)(=O)c1ccc(C)cc1 ?
rule met
